# key: entry, value: viability, T/C
Tested on: 266295-075-R-J1-PDC spheroid viability;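 note: spheroids exposed to compounds for seven days before readout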
Test: Anticancer human tumor 266295-075-R-J1-PDC patient-derived head and neck squamous carcinoma cell line growth inhibition [POLQ]
Details: second compound 0.316 µM; first compound 0.0316 µM; active compounds read low; spheroids with HUVEC and MSC
Numbers only; they are read as %.

Solved cases below.
Molecule	Tested On	viability, T/C [%]
CCc1c2c(nc3ccc(O)cc13)-c1cc3c(c(=O)n1C2)COC(=O)[C@]3(O)CC + Nc1ccc(C#CCN(C(=O)Cc2ncc(C(F)(F)F)cc2C(F)(F)F)c2ccc(F)cc2)nn1	266295-075-R-J1-PDC spheroid viability	80.2
Cn1ncnc1[C@H]1c2n[nH]c(=O)c3cc(F)cc(c23)N[C@@H]1c1ccc(F)cc1 + Nc1ccc(C#CCN(C(=O)Cc2ncc(C(F)(F)F)cc2C(F)(F)F)c2ccc(F)cc2)nn1	266295-075-R-J1-PDC spheroid viability	93
COc1cc(C2c3cc4c(cc3C(OC3OC5COC(C)OC5C(O)C3O)C3COC(=O)C23)OCO4)cc(OC)c1O (stereo unspecified) + Cc1cccc(N(C)C(=O)C2C(O)CCN2c2nc(C)cc(C(F)(F)F)c2C#N)c1	266295-075-R-J1-PDC spheroid viability	96.5
O=C(c1cc(Cc2n[nH]c(=O)c3ccccc23)ccc1F)N1CCN(C(=O)C2CC2)CC1 + COC1C(OC(N)=O)C(O)C(Oc2ccc3c(O)c(NC(=O)c4ccc(O)c(CC=C(C)C)c4)c(=O)oc3c2C)OC1(C)C	266295-075-R-J1-PDC spheroid viability	101
CC1COCCN1c1cc(C2(O)CC3CCC(C2)O3)c2cnn(-c3ccn[nH]3)c2n1 (stereo unspecified) + Cc1cccc(N(C)C(=O)C2C(O)CCN2c2nc(C)cc(C(F)(F)F)c2C#N)c1	266295-075-R-J1-PDC spheroid viability	82.1

We next turn to a different molecule, shown below.
For record COc1cc2cc(C(=O)CCC(=O)O)sc2cc1OC + Cc1cccc(N(C)C(=O)C2C(O)CCN2c2nc(C)cc(C(F)(F)F)c2C#N)c1 the listed viability, T/C is 134
